The measurements presented in this section are drawn from BindingDB's records for doi:10.7270/Q2M32T6M.

# TESTED SYSTEM: Solute carrier family 12 member 5 (Homo sapiens, UniProt Q9H2X9)
# ASSAY: concentration-response of KCC2 transport modulators – cell-based, HEK293 KCC2, FluoZin-2 fluorescence, dose response (AID 1736)
READOUT TYPE: EC50 (µM)
Answer with a number only, understood to be in µM.

| STRUCTURE NOTATION | MEASUREMENT UNITS | EC50 |
| --- | --- | --- |
| COc1ccc(N(CC(=O)Nc2cccc(C)c2C)S(=O)(=O)c2c(C)n[nH]c2C)cc1 | µM | 38.6 |
| O=C(NC(=S)Nc1nc(-c2cccc([N+](=O)[O-])c2)cs1)c1cc(Cl)ccc1Cl | µM | 10.8 |
| O=C(NC(=S)Nc1nc(-c2cccc([N+](=O)[O-])c2)cs1)c1ccccc1Cl | µM | 7.48 |
| COc1ccc(-c2cc(CCCC(=O)NCCc3ccccc3)no2)cc1 | µM | 0.642 |
| Cc1ccc(C2=CSC3=NNC4(CCCCC4)NN23)cc1 | µM | 2.22 |

EC50 measured on `N#Cc1nc(-c2ccco2)oc1N1CCN(Cc2ccccc2)CC1` = 12

Entry `O=C(COC(=O)c1cc([N+](=O)[O-])ccc1NCCO)c1ccccc1` — recorded EC50 = 31.1

---

# TESTED SYSTEM: Solute carrier family 12 member 5 (Homo sapiens, UniProt Q9H2X9)
# ASSAY: concentration-response of KCC2 transport modulators – cell-based, HEK293 KCC2, FluoZin-2 fluorescence, dose response (AID 1736)
Entries annotated with measured log10 EC50
Lab note - EC50 converted to log10 from values in µM.

Use these answered entries as a reference point.
| COMPOUND | log10 EC50 |
| --- | --- |
| CCOC(=O)c1cc2c(ccn2-c2ccc(F)cc2)n1CC(=O)NC(C)(C)C | 1.28 |
| Cc1cc(C(=O)COC(=O)CCc2nc3ccccc3s2)c(C)n1C | 0.29 |
| O=C(NCc1nc(-c2ccccc2)cs1)c1ccccc1 [MLS000661971] | 2.74 |
| O=C(CSc1nnc(CNc2ccccc2)o1)N1CCCc2ccccc21 | 3.24 |
| O=C(CSc1nnnn1-c1ccc(Cl)cc1)N1CCc2ccccc2C1 | 0.15 |
| CN(CC(=O)N1CCN(Cc2ccccc2)CC1)S(=O)(=O)c1cccc2nsnc12 [MLS000674627] | -0.57 |
| O=C(NCc1cccs1)c1nc2c(nnn2Cc2ccc(F)cc2)c(=O)[nH]1 [MLS000074753] | 4.61 |
| S=C(NCc1ccccc1Cl)Nc1ccccc1Cl | 0.76 |

log10 EC50 reading for CCN(CC)S(=O)(=O)c1ccc(NC(=O)CSc2ncnc3ccccc23)cc1 [MLS000393282] : 0.48

Value of log10 EC50 reported for the compound `Cc1ccc(NC(=O)CSc2ccc(-c3ccco3)nn2)cc1` is 0.66

log10 EC50 in this record for `COc1cc(C(=S)N2CCOCC2)cc(OC)c1OC(=O)Cc1ccccc1` : -0.39

Briefly, log10 EC50 measured for `COc1cc(C(=S)N2CCOCC2)cc(OC)c1OC(=O)Cc1ccc(F)cc1` : 0.51

Sure, the documented log10 EC50 for O=[N+]([O-])c1ccccc1C=C[CH+][N-]n1c(-c2ccc(Cl)cc2)n[nH]c1=S [MLS000555506] is 1.19

According to the records, this compound `Cc1cccc(OCc2nnc(SCC(=O)c3cccs3)n2C)c1C` displays log10 EC50 of 0.97

The recorded log10 EC50 for `O=C(C1CCN(S(=O)(=O)c2cccs2)CC1)N1CCc2ccccc2C1` is 3.42

log10 EC50 reading for c1ccc(-c2nnc(Sc3ncnc4c3cnn4-c3ccccc3)[nH]2)cc1 [SMR000019566] : 0.83

---

# TESTED SYSTEM: Solute carrier family 12 member 5 (Homo sapiens)
# ASSAY: concentration-response of KCC2 transport modulators – cell-based, HEK293 KCC2, FluoZin-2 fluorescence, dose response (AID 1736)
pEC50: −log10 of the molar value.
# label = bin(measured pEC50), where bins are bin 0 (below 5), bin 1 (5 to below 6), bin 2 (6 or more)

As a guide, the following entries are already answered.
| COMPOUND | LABEL |
| --- | --- |
| Sc1nnc(Cc2c[nH]c3ccccc23)o1 | bin 1 |
| CC1Cc2ccccc2N1C(=O)CSc1nnc(CNc2ccccc2)o1 (stereo unspecified) | bin 2 |
| O=C(CSc1nnc(-c2ccc(O)cc2)n1Cc1ccco1)N1CCc2ccccc2C1 | bin 1 |
| O=C(Nc1ccc2oc(-c3ccccc3F)nc2c1)c1ccco1 | bin 0 |

[Q] GET /class?item= `O=C(CSc1nccc(=O)[nH]1)N1CCc2ccccc2C1`
[A] bin 0

[Q] Band of `Cc1ccc(S(=O)(=O)N(CCC(=O)O)Cc2ccc(Cl)cc2)cc1` ?
[A] bin 1

---

# EC50 per entry
# TESTED SYSTEM: Solute carrier family 12 member 5 (Homo sapiens)
# Sequence (Q9H2X9 whole entry): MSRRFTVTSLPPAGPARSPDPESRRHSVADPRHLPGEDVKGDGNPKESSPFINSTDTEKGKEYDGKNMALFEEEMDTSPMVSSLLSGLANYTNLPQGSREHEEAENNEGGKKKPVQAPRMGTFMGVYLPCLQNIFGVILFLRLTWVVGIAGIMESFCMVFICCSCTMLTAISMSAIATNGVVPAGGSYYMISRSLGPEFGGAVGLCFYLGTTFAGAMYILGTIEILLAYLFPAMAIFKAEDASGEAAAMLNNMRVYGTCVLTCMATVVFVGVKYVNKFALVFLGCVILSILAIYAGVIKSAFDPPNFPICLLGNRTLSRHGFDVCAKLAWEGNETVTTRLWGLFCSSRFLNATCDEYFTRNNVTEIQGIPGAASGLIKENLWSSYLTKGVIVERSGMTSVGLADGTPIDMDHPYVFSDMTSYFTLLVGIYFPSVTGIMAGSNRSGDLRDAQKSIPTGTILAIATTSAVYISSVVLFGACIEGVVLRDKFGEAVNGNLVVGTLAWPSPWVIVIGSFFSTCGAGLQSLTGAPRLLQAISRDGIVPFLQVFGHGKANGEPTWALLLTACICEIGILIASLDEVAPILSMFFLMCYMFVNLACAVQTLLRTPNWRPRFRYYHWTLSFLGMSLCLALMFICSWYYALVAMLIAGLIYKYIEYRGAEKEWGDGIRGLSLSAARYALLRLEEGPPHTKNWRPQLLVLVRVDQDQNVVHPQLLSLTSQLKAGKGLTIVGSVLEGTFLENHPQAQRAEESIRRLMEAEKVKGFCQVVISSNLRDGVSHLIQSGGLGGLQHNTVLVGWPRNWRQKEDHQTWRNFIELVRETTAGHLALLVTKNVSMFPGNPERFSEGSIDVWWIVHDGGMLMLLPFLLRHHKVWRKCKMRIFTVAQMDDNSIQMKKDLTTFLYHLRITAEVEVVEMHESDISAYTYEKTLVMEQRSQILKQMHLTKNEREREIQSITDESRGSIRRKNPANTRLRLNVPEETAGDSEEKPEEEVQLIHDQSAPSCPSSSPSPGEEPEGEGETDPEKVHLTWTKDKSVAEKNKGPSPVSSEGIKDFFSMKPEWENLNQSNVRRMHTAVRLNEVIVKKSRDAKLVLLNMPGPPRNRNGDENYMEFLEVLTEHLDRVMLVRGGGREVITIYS
# ASSAY: concentration-response of KCC2 transport modulators – cell-based, HEK293 KCC2, FluoZin-2 fluorescence, dose response (AID 1736)
Reply numerically in µM, unit not repeated.

| COMPOUND | MEASUREMENT UNITS | EC50 |
| --- | --- | --- |
| O=c1[nH]c2c(s1)C(c1ccccc1)c1c(c(O)n(-c3ccccc3)c1O)S2 (stereo not given) | µM | 0.0458 |
| CC(C)(CN=C(S)NCCc1ccccc1)CN=C(S)NCCc1ccccc1 | µM | 16.7 |
| O=C(NN1C(=O)/C(=C/c2nc3ccccc3[nH]2)SC1=S)c1ccccc1Cl | µM | 0.128 |
| O=C(O)/C=C/c1cn(Cc2ccccc2Cl)nc1-c1ccccc1 | µM | 0.409 |
| CC1CCN(C(=O)CSc2ccc(-c3ccc(F)cc3)nn2)CC1 | µM | 4.35 |

Let me check: `O=C(OCC(=O)N1CCc2ccccc2C1)c1ccc(N2CCOCC2)c([N+](=O)[O-])c1` , system Solute carrier family 12 member 5 (Homo sapiens), measured EC50 is 11.5

Field EC50 (system: Solute carrier family 12 member 5 (Homo sapiens)) for entry `CCc1ccc(Nc2nnc(SCC(=O)Nc3sccc3C(N)=O)s2)cc1` = 3.54

Reading of EC50 for Oc1c(Br)cc(Br)cc1C=NNC(=S)N[C@H]1CC2C=CC1C2 (stereo not given in full) with Solute carrier family 12 member 5 (Homo sapiens): 12.7

Form: item `C=C(C)Cn1c(N2CCC(Cc3ccccc3)CC2)nc2c1c(=O)[nH]c(=O)n2C` ; test system Solute carrier family 12 member 5 (Homo sapiens); EC50: 15.8

Tested on Solute carrier family 12 member 5 (Homo sapiens), the item CC(=O)NCCC(=O)N1CCCC(CNC(=O)c2ccc(-c3ccccc3)cc2)C1 (stereo not given) showed EC50 equal to 38.4
